experiment_summary: Relative permittivity of water-soluble organic solvent (LCR meter)
Format: physicochemical
condition_details: room temperature of 20° C., 1 MHz
Description: The relative permittivity of the water-soluble organic solvent of various types was measured with LCR Meter 4284A (manufactured by Hewlett-Packard Japan, Ltd.) under conditions of a room temperature of 20° C. and a measurement frequency of 1 MHz.
assay_readout: Relative permittivity (measurement frequency: 1 MHz)
Write the number on its own, no unit after it.

OCC(O)CO | 43.0

Input line: Identify measured Relative permittivity (measurement frequency: 1 MHz) associated with "O=C1CCCN1"
Output line: 27.5

Input line: Report Relative permittivity (measurement frequency: 1 MHz), nothing else, for this compound: OCCCCC(O)CO (stereo not shown)
Output line: 28.5

Input line: Return reported Relative permittivity (measurement frequency: 1 MHz). Input compound: CC(O)CO (stereo not shown)
Output line: 32.2
